Please provide measured fold change of affinity for the entries that follow.
# tested system: T1, Human CD137 ECD (human)
# T1 construct: entry includes C-terminal His-tag and biotin acceptor peptide; also called human CD137 extracellular domain; 4-1BB
# T1 sequence (chain, as listed by the source limits assumed): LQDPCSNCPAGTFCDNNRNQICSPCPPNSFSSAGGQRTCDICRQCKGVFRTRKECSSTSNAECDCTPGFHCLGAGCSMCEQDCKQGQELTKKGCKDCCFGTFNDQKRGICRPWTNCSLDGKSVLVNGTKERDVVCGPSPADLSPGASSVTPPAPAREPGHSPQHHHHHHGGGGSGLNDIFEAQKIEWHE
# assay method text: Biacore SPR, vs parent H183/L072
Answers are plain numbers, in fold.

INSERT INTO results (binder, reported) VALUES
  ('H183/L072 VL V51H (antibody, name in Kabat numbering, V domains shown, Dual-Ig) VH: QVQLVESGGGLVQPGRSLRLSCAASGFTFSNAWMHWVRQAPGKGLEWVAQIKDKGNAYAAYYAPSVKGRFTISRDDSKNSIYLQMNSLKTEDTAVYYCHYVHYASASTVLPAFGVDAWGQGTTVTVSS VL: DIVMTQSPLSLPVTPGEPASISCQASQELVHMNRNTYLHWYQQKPGQAPRLLIYKHSNRFPGVPDRFSGSGSGTDFTLKISRVEAEDVGVYYCAQGTSVPFTFGQGTKLEIK', 0.6);

Data request: Find the recorded fold change of affinity belonging to H183/L072 VL V27cD (antibody, name in Kabat numbering, V domains shown, Dual-Ig) VH: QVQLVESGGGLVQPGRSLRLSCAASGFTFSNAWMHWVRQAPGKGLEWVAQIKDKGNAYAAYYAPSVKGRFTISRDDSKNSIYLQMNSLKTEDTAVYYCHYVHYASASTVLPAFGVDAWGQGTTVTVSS VL: DIVMTQSPLSLPVTPGEPASISCQASQELDHMNRNTYLHWYQQKPGQAPRLLIYKVSNRFPGVPDRFSGSGSGTDFTLKISRVEAEDVGVYYCAQGTSVPFTFGQGTKLEIK and report it.
Data returned: 0.3
